Data provenance: the RNAGym collection of RNA variant scans (doi:10.7554/elife.80360)

B1: HDV Ribozyme (parent)
chain: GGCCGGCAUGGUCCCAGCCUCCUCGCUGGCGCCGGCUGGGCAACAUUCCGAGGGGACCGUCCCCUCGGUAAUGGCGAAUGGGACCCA

- Variants of: B1
- ASSAY TEXT: self-cleavage, relative activity (ratio to wild type); higher = more cleavage; co-transcriptional
Classification field: enter rule met for self-cleavage values not below 0.1, rule not met for values below it.

G35U C36A; rule not met
C4U G40A; rule met
G54C C66U; rule met

Is the recorded value of self-cleavage equal to or greater than 0.1 for this variant? G2U U47A
rule not met

Is the recorded value of self-cleavage equal to or greater than 0.1 for this variant? C7G C15A
rule not met

Is the recorded value of self-cleavage equal to or greater than 0.1 for this variant? C15G U65C
rule met

Is the recorded value of self-cleavage equal to or greater than 0.1 for this variant? C36A U60C
rule met

Is the recorded value of self-cleavage equal to or greater than 0.1 for this variant? C26U G76A
rule met
